src = patent US8889676B2

tested on: S. pneumoniae ATCC 49619; test: Minimal inhibitory concentration (MIC) by broth microdilution (CLSI M7-A7); type: cell-based, Streptococcus pneumoniae; conditions: Streptococcus pneumoniae, ATCC49619; cation-adjusted Mueller Hinton Broth supplemented with 3% (v/v) lysed horse blood; microdilution method
METRIC: MIC (mg/L)

Previously resolved entries follow.
compound=CCNC(=O)Nc1cc2c(-c3ccnc(N4CCCCC4)c3)ccc(CNC(=O)OC)c2cn1 metric=MIC obs_value=4
compound=C#CCOC(=O)NCc1ccc(-c2cccnc2)c2cc(NC(=O)NCC)ncc12.Cl metric=MIC obs_value=1
compound=CCNC(=O)Nc1cc2cccc(CNC(=O)Cc3ccccc3)c2cn1 metric=MIC obs_value=1
compound=CCNC(=O)Nc1cc2cccc(CNC(=O)C3CC3)c2cn1 metric=MIC obs_value=2

A. CCNC(=O)Nc1cc2c(-c3ccncc3)ccc(CNC(=O)OCCO)c2cn1
B. CCNC(=O)Nc1cc2c(-c3ccncc3)ccc(CNC(=O)OCC(O)CO)c2cn1.Cl (racemic)
C. CCNC(=O)Nc1cc2c(-c3ccnc(CCC(N)=O)c3)ccc(CNC(=O)OCCOC)c2cn1
D. C#CCOC(=O)NCc1ccc(-c2ccnc(N)c2)c2cc(NC(=O)NCC)ncc12.Cl
## Input Put the items in sequence by MIC, from largest down. To answer, arrange all of the labels according to the requested order.
## Output C, B, A, D

---

test system: S. pneumoniae ATCC 49619; test: Minimal inhibitory concentration (MIC) by broth microdilution (CLSI M7-A7); type: cell-based, Streptococcus pneumoniae; conditions: Streptococcus pneumoniae, ATCC49619; cation-adjusted Mueller Hinton Broth supplemented with 3% (v/v) lysed horse blood; microdilution method
METRIC: MIC (µg/mL)

Previously resolved entries follow.
structure=CCNC(=O)Nc1cc2c(-c3ccncc3)ccc(CNC(=O)OCCOC)c2cn1 obs_value=0.5
structure=CCNC(=O)Nc1cc2cccc(CNC(=O)OC(C)C)c2cn1.Cl obs_value=4
structure=C#CCOC(=O)NCc1ccc(-c2cccc(CNC(C)=O)c2)c2cc(NC(=O)NCC)ncc12.Cl obs_value=4
structure=CCNC(=O)Nc1cc2c(-c3ccncc3)ccc(CNC(=O)OCCCN3CCCC3=O)c2cn1.Cl obs_value=1
structure=CCNC(=O)Nc1cc2c(Cl)ccc(CNC(=O)OCCOC)c2cn1 obs_value=0.5

P. CCNC(=O)Nc1cc2c(-c3ccncc3)ccc(CNC(=O)c3cn[nH]c3)c2cn1
Q. C#CC(=O)NCc1ccc(-c2ccnnc2)c2cc(NC(=O)NCC)ncc12
R. C#CCOC(=O)NCc1ccc(F)c2cc(NC(=O)NCC)ncc12
S. CCNC(=O)Nc1cc2c(-c3ccncc3)ccc(CNC(=O)OCCN3CCCCC3)c2cn1.Cl
T. CCNC(=O)Nc1cc2c(-c3ccncc3)ccc(CNC(=O)OC)c2cn1
## Input Put the items in sequence by MIC, from largest down. To answer, arrange all of the labels according to the requested order.
## Output S, P, R, Q, T

---

System: S. pneumoniae ATCC 49619
Test: Minimal inhibitory concentration (MIC) by broth microdilution (CLSI M7-A7)
Assay type: cell-based, Streptococcus pneumoniae
Conditions: Streptococcus pneumoniae, ATCC49619; cation-adjusted Mueller Hinton Broth supplemented with 3% (v/v) lysed horse blood; microdilution method
Experimental: Minimal inhibitory concentrations (MICs; mg/l) were determined in cation-adjusted MuellerHinton Broth (supplemented with 3% (v/v) lysed horse blood for testing Streptococcus pneumoniae) by a microdilution method following the description given in “Methods for Dilution Antimicrobial Susceptibility Tests for Bacteria that Grow Aerobically”, Approved standard, 7th ed., a Clinical and Laboratory Standards Institute (CLSI) Document M7-A7, Wayne, Pa., USA, 2006.
METRIC: MIC (mg/L)

molecule="CCNC(=O)Nc1cc2cccc(CNC(=O)OCCF)c2cn1.Cl [Example 27]" obs_value=4
molecule="CCNC(=O)Nc1cc2c(-c3cc(F)ncc3F)ccc(CNC(=O)OC)c2cn1.Cl [Example 191]" obs_value=2

1. CCNC(=O)Nc1cc2c(-c3ccnc(C)c3)ccc(CNC(=O)OC(C)(C)C)c2cn1 [Example 176]
2. CCNC(=O)Nc1cc2c(-c3ccncc3)ccc(CNC(=O)CN)c2cn1.Cl [Example 50]
## Input Select the item whose MIC value is smaller, choosing between 1 and 2 . Output the label that corresponds to your choice.
## Output 1
